experiment: yeast display, Sf9 membrane polyspecificity reagent, FACS + sequencing; frameworks hold sequencing errors

query-sequence	polyreactivity (PSR sort gate)
QVQLVESGGGLVQAGGSLRLSCAASGRILTFYGMGWYRQAPGKERELVAAISNGGSTYYADSVKGRFTSSRDNAKNTVYLQMNSLKPEDTAVYYCAKRILTAPRRNSGYDYWGPGTQVTVSS	low polyreactivity
QVQLVESGGGLVQAGGSLRLSCAASGFIFYLYAMGWYRQAPGKERELVASINVSGASTRYADSVKGRFTISRDNAKNTDYLQMNSLKPEDTAVYYCAAPSRYDYWGQGTQVTVSS	low polyreactivity
QVQLVESGGGLVQAGCSLRLSCAASGSFFSSNSMGWYRQAPGTERELVAAISRSGGNTYYADSVKGRFTISRDNAKNTVYLQMNSLKPEDTAVYYCAVVGRHGQKYDWGQGNQVTVSS	high polyreactivity
QVQLVESGGGLVQAGGSLRLSCAASGIIFGYYAMGWYRQAPGKERELVAAISSIGGSTYYADSVKGRFTISRDNAKNTVYLQMNSLKPEDTAVYYCNAASSRWPEYDYWGQGTQVTVSS	high polyreactivity
QVQLVESGGGLVQAGGSLRLSCAASGSIFHTYAMGWYRQAPGKERELVAAITVSGGDTYYADSVKGRFTISRDNAKNTGYLQMNSLKPEDTAVYYCAKRIFDTFDSWGQGTQVTVSS	low polyreactivity

All values here come from the nanobody polyreactivity screen of Harvey et al. (2022).
